System: E13 (patient-derived glioblastoma stem cells of classical subtype);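 note: cell Painting imaging in 384-well plates, CellProfiler features reduced to at least 20 principal components, Euclidean distance versus same-plate DMSO vehicle wells (0.1% v/v), median over six images per well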
Experiment: phenotypic distance (Euclidean, principal components) from DMSO controls (arbitrary units); higher = stronger morphological change
Details: 3000 nM; exposure time: 72 h
Counter-ions that a name gives are not always drawn.
Reported phenotypic distance values for the following compounds.
Output: the number by itself.

Study these solved cases before continuing.
# COMPOUND, phenotypic distance
data = [
    ("CC(C)N1CCN(c2ccc(OCC3COC(Cn4cncn4)(c4ccc(Cl)cc4Cl)O3)cc2)CC1 (stereo not given)", 0.901),
    ("CCCCCCCCCCCCCCCC[N+](C)(C)CCN(Cc1ccc(OC)cc1)c1ncccn1 [Thonzonium bromide]", 5.26),
    ("N=C(N)c1ccc(-c2ccc(-c3ccc(C(=N)N)cc3)o2)cc1 [Furamidine dihydrochloride]", 2.41),
    ("CCn1cc(-c2ccnc3[nH]c(-c4cccc(CN(C)C)c4)cc23)c(-c2ccc(NC(=O)N(C)C)cc2)n1", 3.74),
    ("C=C(C)[C@H]1Cc2c(ccc3c2O[C@@H]2COc4cc(OC)c(OC)cc4[C@@H]2C3=O)O1", 6.02),
]

Pending compound:
Ask: Return value of phenotypic distance for input Cc1cccn2c(=O)c(-c3nnn[nH]3)cnc12 , no commentary.
Reply: 0.784
